Origin of the recorded values: the kinase profiling compilation of Christmann-Franck et al. (2016)

biological target: FGFR1 (human) (UniProt P11362); assay: radiometric filter-binding kinase assay, Kinase HotSpot; conditions: compound 0.5 µM; ATP 10 µM
Sequence (P11362 whole entry, looked up): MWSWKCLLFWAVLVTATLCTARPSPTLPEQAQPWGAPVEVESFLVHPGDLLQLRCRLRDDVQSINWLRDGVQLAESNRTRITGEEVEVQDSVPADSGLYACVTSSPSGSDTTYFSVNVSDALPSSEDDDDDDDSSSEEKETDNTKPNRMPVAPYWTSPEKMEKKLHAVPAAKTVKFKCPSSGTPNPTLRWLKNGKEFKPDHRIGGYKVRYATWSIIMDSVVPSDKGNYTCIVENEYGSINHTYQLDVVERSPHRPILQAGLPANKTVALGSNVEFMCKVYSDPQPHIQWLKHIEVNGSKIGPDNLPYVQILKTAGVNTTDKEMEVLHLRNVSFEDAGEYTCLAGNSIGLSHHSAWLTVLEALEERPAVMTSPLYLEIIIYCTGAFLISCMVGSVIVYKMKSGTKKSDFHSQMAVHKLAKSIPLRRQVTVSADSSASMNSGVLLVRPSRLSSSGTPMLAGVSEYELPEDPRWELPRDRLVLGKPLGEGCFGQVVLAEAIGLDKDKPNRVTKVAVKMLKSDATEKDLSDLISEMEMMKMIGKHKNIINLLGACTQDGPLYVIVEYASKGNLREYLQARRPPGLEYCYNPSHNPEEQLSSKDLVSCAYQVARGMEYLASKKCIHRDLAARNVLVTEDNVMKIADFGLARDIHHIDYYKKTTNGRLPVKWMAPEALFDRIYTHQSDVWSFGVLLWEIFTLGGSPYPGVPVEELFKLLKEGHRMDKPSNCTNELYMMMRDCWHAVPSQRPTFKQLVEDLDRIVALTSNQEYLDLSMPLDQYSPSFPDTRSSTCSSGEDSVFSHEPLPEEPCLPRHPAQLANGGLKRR
Reported Property: residual activity
Quote the value and follow it with the unit of measurement.

Some molecules with recorded residual activity:
Query Smiles	residual activity
N#CCCc1ccc2c(c1)-c1[nH]c3ccc([N+](=O)[O-])cc3c1CC(=O)N2	91.9%
c1ccc(-c2cnc(Nc3ccc(OCCN4CCCC4)cc3)s2)cc1	75.4%

For each of the molecules below, note its residual activity.
1. N/C(=N\N=C/c1ccc(-c2cccc([N+](=O)[O-])c2)o1)N[N+](=O)[O-]
2. COc1cc2c(N3CCN(C(=O)Nc4ccc(OC(C)C)cc4)CC3)ncnc2cc1OCCCN1CCCCC1
3. O=C(O)c1ccc2c3c1cccc3c(=O)n1c3ccccc3nc21

["97.6%", "101%", "84.7%"]

For each of the molecules below, note its residual activity.
1. COc1cc2c(cc1OC)-c1[nH]nc(Nc3cccc(F)c3)c1C2
2. O=C1NC(=O)c2cc(Nc3ccc(F)cc3)c(Nc3ccc(F)cc3)cc21
3. N#C/C(=C1/Nc2ccccc2S1)c1ccnc(NCCc2cccnc2)n1
4. COc1cccc(-c2cc(=O)c3ccccc3o2)c1N
5. O=c1c(-c2ccc(F)cc2)c(-c2ccncc2)[nH]n1-c1ccc(Cl)cc1

1. 99.2%
2. 92.1%
3. 99%
4. 96.8%
5. 93.7%

For each of the molecules below, note its residual activity.
1. O=S(=O)(NCCNC/C=C/c1ccc(Br)cc1)c1cccc2cnccc12
2. Nc1ncnc2c1cnn2-c1ccccc1
3. N#Cc1c(NC(=O)c2cccc3ccccc23)sc2c1CCCC2
4. COc1cc2ncnc(Nc3ccc(O)c(Br)c3)c2cc1OC
5. O=c1c2ccccc2[nH]c(=S)n1CCN1CCC(=C(c2ccc(F)cc2)c2ccc(F)cc2)CC1
6. Cn1cc(/C=C2\C(=O)Nc3ccc(S(N)(=O)=O)cc32)c2ccccc21

1: 87.6%; 2: 93%; 3: 105%; 4: 93.4%; 5: 105%; 6: 50.2%

For each of the molecules below, note its residual activity.
1. CCc1nc(-c2ccc(OC)cc2)[nH]c1-c1ccncc1
2. FC(F)(F)c1ccc(/C=C/c2nc(COc3ccc(CCCCn4ccnn4)cc3)co2)cc1
3. O=C1NC(=O)c2c1c1c3ccccc3[nH]c1c1[nH]c3cc(Br)ccc3c21

1. 88.1%
2. 101%
3. 85.3%

---

target: PHKG2 (human); test: radiometric filter-binding kinase assay, Kinase HotSpot; settings: compound 0.5 µM; ATP 10 µM
Please respond with reported residual activity for every item in the list.
Quote the value and follow it with the unit of measurement.

For each of the compounds below, note its residual activity.
1. CN[C@@H]1C[C@H]2O[C@@](C)([C@@H]1OC)n1c3ccccc3c3c4c(c5c6ccccc6n2c5c31)C(=O)NC4
2. O=c1[nH]c2ccccc2n1C1CCN(Cc2ccc(-c3nc4cc5[nH]cnc5cc4nc3-c3ccccc3)cc2)CC1
3. FC(F)(F)c1ccc(/C=C/c2nc(COc3ccc(CCCCn4ccnn4)cc3)co2)cc1

3.42%
104%
93.5%

For the compound shown here, O=C(O)c1ccc2c3c1cccc3c(=O)n1c3ccccc3nc21 , give the reported residual activity.
94.7%
